The origin of these recorded values is patent US20220087983A1.

System: CYP2B6
Test: CYP mRNA induction in cultured human hepatocytes
Format: in vitro ADME
Conditions: human, primary cultured human hepatocytes, 10 μM; donors AIH, EUJ, HC5-40 individually
experimental_endpoint: fold induction at 10 µM

In [3]: df
Out[3]:
                                   compound    experimental_endpoint  observed_result
0  O=C([C@H](CO)c1ccccc1)N1CC2=C(C1)CN(S(=O)(=O)c1cnc3c(c1)OCCO3)C2 (single isomer, unassigned) [Compound 1]  fold induction at 10 µM              1.7

---

Tested on: CYP2B6
Test: CYP mRNA induction in cultured human hepatocytes
Format: in vitro ADME
Conditions: human, 3.3 μM; donors AIH, EUJ, HC5-40 individually
experimental_endpoint: fold induction at 3.3 µM

                                   compound  test_target     experimental_endpoint  observed_result
0  O=C([C@H](CO)c1ccccc1)N1CC2=C(C1)CN(S(=O)(=O)c1cnc3c(c1)OCCO3)C2 (single isomer, unassigned) [Compound 1]       CYP2B6  fold induction at 3.3 µM             1.25

---

Experiment: Phase 1 SAD/MAD/food effect: plasma pharmacokinetics in healthy volunteers
Type: in vivo, human
Conditions: human, plasma, oral, 700 mg, HV (N = 6); single dose 700 mg; geometric mean (geometric CV); read-out: t1/2 (converted)
experimental_endpoint: half-life (h)

>>> print(df.to_string())
                                   compound  measure_unit  observed_result
0  O=C([C@H](CO)c1ccccc1)N1CC2=C(C1)CN(S(=O)(=O)c1cnc3c(c1)OCCO3)C2 (single isomer, unassigned)             h             13.3

---

Assay: Phase 1 SAD/MAD/food effect: plasma pharmacokinetics in healthy volunteers
Type: in vivo, human
Conditions: human, plasma, oral; HS and SCD subjects similar; read-out: T½
Procedure: This is a first-in-human (FIH), Phase 1 study of Compound 1 that will characterize the safety, PK, and PD of Compound 1 after a single dose and after repeated dosing first in healthy adult volunteers and then in adolescents or adults with sickle cell disease. […] In this study, SAD/MAD cohorts are randomized (3 to 1) to receive Compound 1 or placebo (P). Compound 1 was evaluated first in 4 healthy SAD cohorts and 4 healthy MAD (14-day dosing period) cohorts. […]
experimental_endpoint: half-life

>>> df
                                   compound  observed_result
0  O=C([C@H](CO)c1ccccc1)N1CC2=C(C1)CN(S(=O)(=O)c1cnc3c(c1)OCCO3)C2 (single isomer, unassigned) [Compound 1]       10 to 13 h

---

Assay: Phase 1 SAD/MAD/food effect: plasma pharmacokinetics in healthy volunteers
Type: in vivo, human
Conditions: human, plasma, oral, biphasic PK profile; read-out: terminal half-life
experimental_endpoint: half-life

>>> print(df.to_string())
                                   compound  observed_result
0  O=C([C@H](CO)c1ccccc1)N1CC2=C(C1)CN(S(=O)(=O)c1cnc3c(c1)OCCO3)C2 (single isomer, unassigned)       12 to 14 h

---

Molecular target: CYP2C19 (Homo sapiens, UniProt P33261)
Sequence (P33261 whole entry): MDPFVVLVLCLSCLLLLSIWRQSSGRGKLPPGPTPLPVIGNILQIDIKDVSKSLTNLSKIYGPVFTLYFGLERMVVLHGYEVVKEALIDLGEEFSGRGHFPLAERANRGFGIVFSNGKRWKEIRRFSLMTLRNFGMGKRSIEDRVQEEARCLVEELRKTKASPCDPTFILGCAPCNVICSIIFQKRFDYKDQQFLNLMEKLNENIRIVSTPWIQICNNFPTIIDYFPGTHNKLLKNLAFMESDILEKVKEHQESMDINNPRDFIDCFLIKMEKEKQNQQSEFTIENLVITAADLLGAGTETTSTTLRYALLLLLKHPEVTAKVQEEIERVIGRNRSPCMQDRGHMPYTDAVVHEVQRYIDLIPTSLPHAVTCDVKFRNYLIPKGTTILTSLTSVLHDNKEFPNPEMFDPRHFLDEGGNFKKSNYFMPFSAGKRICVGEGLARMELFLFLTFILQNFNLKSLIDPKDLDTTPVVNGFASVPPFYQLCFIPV
pIC50: −log10 of the molar value.
experimental_endpoint: pIC50

>>> df
                                   compound  observed_result
0  O=C([C@H](CO)c1ccccc1)N1CC2=C(C1)CN(S(=O)(=O)c1cnc3c(c1)OCCO3)C2 (single isomer, unassigned) [Compound 1]           < 4.52
